System: Key Grass and Sedge Weeds as well as Grass Crops
Protocol text: Post-emergent Test II herbicidal activity (Table 16)
Type: in vivo
Measurement setup: Triticum aestivum, post-emergence, 336 h, wheat, spring (Triticum aestivum), 140 g ai/ha, 14 d, read-out: Visual Growth Reduction (%) 14 Days After Application, TRZAS
Observed property: pest or weed control at 140 g/ha

## Task # pest or weed control at 140 g/ha lookup, item Nc1c(F)c(-c2ccc3ccoc3c2)nc(C(=O)O)c1Cl [Compound 2.08]
## Result 0 to 29%

## Task # pest or weed control at 140 g/ha lookup, item C=Cc1c(C(=O)O)nc(-c2ccc3cc[nH]c3c2F)c(F)c1N [Compound 1.19]
## Result 75 to 84%

## Task # pest or weed control at 140 g/ha lookup, item COC(=O)c1nc(-c2ccc3sccc3c2)c(F)c(N)c1Cl [Compound 3.03]
## Result 45 to 59%

## Task # pest or weed control at 140 g/ha lookup, item Nc1cc(-c2ccc3cc[nH]c3c2F)nc(C(=O)O)c1Cl [Compound 1.24]
## Result 45 to 59%

## Task # pest or weed control at 140 g/ha lookup, item COC(=O)c1nc(-c2ccc3cc[nH]c3c2)c(F)c(N)c1Cl [Compound 1.08]
## Result 30 to 44%

====

System: Key Broadleaf Weed and Crop Species
Protocol text: Post-emergent Test II herbicidal activity (Table 15)
Type: in vivo
Measurement setup: Chenopodium album, post-emergence, 336 h, lambsquarters (Chenopodium album), 140 g ai/ha, 14 d, read-out: Visual Growth Reduction (%) 14 Days After Application, CHEAL
Observed property: pest or weed control at 140 g/ha

## Task # pest or weed control at 140 g/ha lookup, item C=Cc1c(C(=O)O)nc(-c2ccc3cc[nH]c3c2F)c(F)c1N [Compound 1.19]
## Result 95 to 100%

## Task # pest or weed control at 140 g/ha lookup, item Cc1c(-c2ccc3cc[nH]c3c2)nc(C(=O)O)c(Cl)c1N [Compound 1.29]
## Result 75 to 84%

## Task # pest or weed control at 140 g/ha lookup, item COC(=O)c1nc(-c2ccc3cc[nH]c3c2F)cc(N)c1Cl [Compound 1.23]
## Result 95 to 100%

## Task # pest or weed control at 140 g/ha lookup, item Nc1c(F)c(-c2ccc3cn[nH]c3c2)nc(C(=O)O)c1Cl [Compound 4.06]
## Result 95 to 100%

## Task # pest or weed control at 140 g/ha lookup, item Nc1c(F)c(-c2ccc3ccsc3c2)nc(C(=O)O)c1Cl [Compound 3.13]
## Result 95 to 100%

====

System: Key Broadleaf Weed and Crop Species
Protocol text: Post-emergent Test II herbicidal activity (Table 15)
Type: in vivo
Measurement setup: Chenopodium album, post-emergence, 336 h, lambsquarters (Chenopodium album), 140 g ai/ha, 14 d, read-out: Visual Growth Reduction (%) 14 Days After Application, CHEAL
Can you tell me pest or weed control at 140 g/ha for the items I'm about to list?

## Task # pest or weed control at 140 g/ha lookup, item COC(=O)c1nc(-c2ccc3sccc3c2)cc(N)c1Cl [Compound 3.05]
## Result 85 to 94%

## Task # pest or weed control at 140 g/ha lookup, item Nc1c(F)c(-c2cc3[nH]ccc3cc2F)nc(C(=O)O)c1Cl [Compound 1.14]
## Result 75 to 84%

## Task # pest or weed control at 140 g/ha lookup, item COC(=O)c1nc(-c2ccc3cc[nH]c3c2)nc(N)c1Cl [Compound 1.30]
## Result 45 to 59%

## Task # pest or weed control at 140 g/ha lookup, item COC(=O)c1nc(-c2ccc3ccsc3c2)nc(N)c1OC [Compound 3.20]
## Result 95 to 100%

## Task # pest or weed control at 140 g/ha lookup, item COC(=O)c1nc(-c2cc3sccc3cc2F)nc(N)c1OC [Compound 3.22]
## Result 85 to 94%

## Task # pest or weed control at 140 g/ha lookup, item COC(=O)c1nc(-c2ccc3ncn(C)c3c2)c(F)c(N)c1Cl [Compound 7.02]
## Result 95 to 100%

## Task # pest or weed control at 140 g/ha lookup, item COC(=O)c1nc(-c2ccc3cc[nH]c3c2)c(F)c(N)c1Cl [Compound 1.08]
## Result 95 to 100%

## Task # pest or weed control at 140 g/ha lookup, item COC(=O)c1nc(-c2cc3ccoc3cc2F)cc(N)c1Cl [Compound 2.04]
## Result 95 to 100%

## Task # pest or weed control at 140 g/ha lookup, item COC(=O)c1nc(-c2ccc3ccsc3c2)c(F)c(N)c1Cl [Compound 3.12]
## Result 95 to 100%

## Task # pest or weed control at 140 g/ha lookup, item COC(=O)c1nc(-c2ccc3cc[nH]c3c2F)c(F)c(N)c1Cl [Compound 1.15]
## Result 95 to 100%

## Task # pest or weed control at 140 g/ha lookup, item COC(=O)c1nc(-c2ccc(Cl)c3occc23)nc(N)c1OC [Compound 2.21]
## Result 95 to 100%

## Task # pest or weed control at 140 g/ha lookup, item COC(=O)c1nc(-c2ccc3ocnc3c2)c(F)c(N)c1Cl [Compound 5.01]
## Result 85 to 94%

## Task # pest or weed control at 140 g/ha lookup, item COC(=O)c1nc(-c2cc3[nH]ccc3cc2F)c(F)c(N)c1Cl [Compound 1.13]
## Result 85 to 94%

## Task # pest or weed control at 140 g/ha lookup, item COC(=O)c1nc(-c2ccc3[nH]ccc3c2)c(F)c(N)c1Cl [Compound 1.02]
## Result 95 to 100%

## Task # pest or weed control at 140 g/ha lookup, item COc1c(N)nc(-c2ccc3cc[nH]c3c2F)nc1C(=O)O [Compound 1.35]
## Result 85 to 94%

## Task # pest or weed control at 140 g/ha lookup, item COC(=O)c1nc(-c2cccc3sccc23)c(F)c(N)c1Cl [Compound 3.23]
## Result 85 to 94%

## Task # pest or weed control at 140 g/ha lookup, item COC(=O)c1nc(-c2cccc3cc[nH]c23)c(F)c(N)c1Cl [Compound 1.47]
## Result 85 to 94%

## Task # pest or weed control at 140 g/ha lookup, item COC(=O)c1nc(-c2ccc(Cl)c3cc[nH]c23)c(F)c(N)c1Cl [Compound 1.46]
## Result 95 to 100%

## Task # pest or weed control at 140 g/ha lookup, item COC(=O)c1nc(-c2ccc3cnn(C)c3c2)c(F)c(N)c1Cl [Compound 4.07]
## Result 0 to 29%

Where do the numbers come from? From patent US20170050957A1.
